tested on: blackgrass (Alopecurus myosuroides); assay: Test C pre-/postemergence greenhouse test, plant response rating 0-100; assay type: in vivo; conditions: Alopecurus myosuroides, post-emergence; Postemergence, 62 g ai/ha; read-out: Plant response rating (0 to 100), Blackgrass;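 note: 0 is no effect and 100 is complete control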
For each record, write down the corresponding pest or weed control at 62 g/ha.
Numeric only. Scale: %

Could you tell me which pest or weed control at 62 g/ha is on file for COCC(=O)n1cc(C(=O)c2ccccc2)c(-c2cc(Cl)cc(Cl)c2)n1 ? 0

Can you check COC(OC)(c1ccccc1)c1c[nH]nc1-c1cc(Cl)cc(Cl)c1 next? 5

Can you check Cn1cc(C(=O)c2ccccc2)c(-c2cc(Cl)cc(Cl)c2)n1 next? 0

Can you check C#CCn1cc(C(=O)c2ccccc2)c(-c2cc(Cl)cc(Cl)c2)n1 next? 0

---

Tested on: hairy beggarticks (Bidens pilosa)
Test: Test E pre-/postemergence greenhouse test, plant response rating 0-100
Format: in vivo
Settings: Postemergence, 500 g ai/ha; scale 0 to 100
Excerpt: […] Treated plants and controls were maintained in a greenhouse for 14 to 21 days, after which time all species were compared to controls and visually evaluated. […]
Outcome Measure: Plant response rating, Beggarticks
Please reply with the value in numeric form only.

Could you tell me which Plant response rating, Beggarticks is on file for Fc1cccc(NN=C(c2ccccc2)c2c[nH]nc2-c2cc(Cl)cc(Cl)c2)c1 ? 100

Can you check O=Cn1cc(C(=O)c2ccccc2)c(-c2cc(Cl)cc(Cl)c2)n1 next? 98

Can you check O=C(c1ccccc1)c1cn(S(=O)(=O)CCl)nc1-c1cc(Cl)cc(Cl)c1 next? 98

Can you check Cn1cc(C(=O)c2cccs2)c(-c2cc(Cl)cc(Cl)c2)n1 next? 60

---

system: Italian ryegrass (Lolium multiflorum); test: Test C pre-/postemergence greenhouse test, plant response rating 0-100; type: in vivo; conditions: Postemergence, 62 g ai/ha
For each record, write down the corresponding Plant response rating (0 to 100), Ryegrass, Italian.
Please reply with the value in numeric form only.

Could you tell me which Plant response rating (0 to 100), Ryegrass, Italian is on file for CC(C)n1cc(C(=O)c2ccccc2)c(-c2cc(Cl)cc(Cl)c2)n1 ? 0

Can you check Fc1cccc(NN=C(c2ccccc2)c2c[nH]nc2-c2cc(Cl)cc(Cl)c2)c1 next? 0

Can you check ON=C(c1ccccc1)c1c[nH]nc1-c1cc(Cl)cc(Cl)c1 next? 0

Can you check O=C(c1ccccc1)c1cn(S(=O)(=O)C(F)(F)F)nc1-c1cc(Cl)cc(Cl)c1 next? 0

Can you check C=CCn1cc(C(=O)c2ccccc2)c(-c2cc(Cl)cc(Cl)c2)n1 next? 0

---

system: giant foxtail (Setaria faberii); assay: Test C pre-/postemergence greenhouse test, plant response rating 0-100; type: in vivo; details: Postemergence, 125 g ai/ha
For each record, write down the corresponding Plant response rating (0 to 100), Foxtail, Giant.
Please reply with the value in numeric form only.

Could you tell me which Plant response rating (0 to 100), Foxtail, Giant is on file for CCn1cc(C(=O)c2ccccc2)c(-c2cc(Br)cc(Br)c2)n1 ? 0

Can you check O=C(c1cncc(F)c1)c1c[nH]nc1-c1cc(Cl)cc(Cl)c1 next? 5

Can you check Cn1cc(C(=NN2CCCC2)c2ccccc2)c(-c2cc(Cl)c(Cl)c(Cl)c2)n1 next? 0

Can you check O=Cn1cc(C(=O)c2ccccc2)c(-c2cc(Cl)cc(Cl)c2)n1 next? 5

Can you check Fc1ccccc1NN=C(c1ccccc1)c1c[nH]nc1-c1cc(Cl)cc(Cl)c1 next? 0

Can you check CCn1cc(C(=NN2CCCC2)c2ccccc2)c(-c2cc(Cl)cc(Cl)c2)n1 next? 25
